All values here come from patent US20200339690A1.

# SYSTEM: human LILRB2 expressed on cells (human, UniProt Q8N423 22-597)
# Sequence (Q8N423 other isoform, or with tags, fused parts or gaps limits assumed): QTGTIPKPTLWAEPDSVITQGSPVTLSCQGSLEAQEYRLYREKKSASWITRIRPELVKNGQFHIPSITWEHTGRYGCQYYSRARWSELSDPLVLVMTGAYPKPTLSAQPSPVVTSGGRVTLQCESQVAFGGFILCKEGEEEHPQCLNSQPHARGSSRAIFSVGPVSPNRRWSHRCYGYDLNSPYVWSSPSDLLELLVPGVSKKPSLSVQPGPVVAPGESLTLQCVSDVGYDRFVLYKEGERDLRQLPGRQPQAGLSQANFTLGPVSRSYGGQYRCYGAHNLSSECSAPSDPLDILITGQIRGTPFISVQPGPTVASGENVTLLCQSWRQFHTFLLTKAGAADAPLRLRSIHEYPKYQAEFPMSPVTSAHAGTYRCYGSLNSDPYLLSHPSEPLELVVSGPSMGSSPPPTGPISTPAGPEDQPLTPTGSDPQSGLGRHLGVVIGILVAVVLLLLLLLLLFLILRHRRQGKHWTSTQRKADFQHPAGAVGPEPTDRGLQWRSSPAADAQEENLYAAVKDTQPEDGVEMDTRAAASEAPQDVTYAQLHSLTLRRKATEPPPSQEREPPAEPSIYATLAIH
# METHOD_DESCRIPTION: cell-based or functional assay
ASSAY_READOUT: CCL2 production (fold over LPS alone)
For clarity, give the value followed by its unit.

Provide measured CCL2 production (fold over LPS alone) value, entry: J-17 (antibody, human IgG4 S228P, kappa, V domains shown, Human IgG4 chimera of murine origin; also called J-17.h) VH: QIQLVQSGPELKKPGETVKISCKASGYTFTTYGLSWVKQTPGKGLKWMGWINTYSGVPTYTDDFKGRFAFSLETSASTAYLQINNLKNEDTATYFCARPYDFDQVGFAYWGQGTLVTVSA VL: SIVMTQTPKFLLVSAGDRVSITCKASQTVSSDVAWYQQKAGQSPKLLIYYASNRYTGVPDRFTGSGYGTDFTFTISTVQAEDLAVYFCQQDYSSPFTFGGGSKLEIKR 1.85 fold over LPS alone
